Every entry's value here was drawn from patent US20240132624A1.

- target-system: T1, human FcRn/b2M (human, UniProt P61769 21-119, biotinylated)
- T1 construct: bought recombinant biotinylated protein (ACRO FCM-H82W4 or Immunitrack ITF01); also called hFcRn; hFcRn/hb2M
- T1 sequence (chain, as listed by the source limits assumed, chain 1 of 2): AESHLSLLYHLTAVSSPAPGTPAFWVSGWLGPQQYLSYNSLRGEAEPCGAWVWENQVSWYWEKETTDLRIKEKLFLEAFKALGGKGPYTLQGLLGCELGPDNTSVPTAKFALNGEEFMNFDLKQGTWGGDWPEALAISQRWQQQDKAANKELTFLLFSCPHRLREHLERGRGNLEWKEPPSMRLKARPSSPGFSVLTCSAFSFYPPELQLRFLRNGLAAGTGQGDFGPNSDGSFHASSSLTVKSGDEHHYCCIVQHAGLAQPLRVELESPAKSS
- T1 sequence (P61769 21-119 limits assumed, chain 2 of 2): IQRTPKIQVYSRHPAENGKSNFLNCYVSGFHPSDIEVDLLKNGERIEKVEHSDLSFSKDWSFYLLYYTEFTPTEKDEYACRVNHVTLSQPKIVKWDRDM
- protocol-summary: SPR off-rate; pH 7.4 vs pH 6.0;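 also: surface plasmon resonance with diluted periplasmic extracts flowed over ligand surfaces, 120 s association and 600–3600 s dissociation at 25 °C, running buffer containing 150 mM NaCl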
measured-quantity: kd ratio pH 7.4/6.0
Please state the value as a number alone, without comment.

Look over these answered cases.
- T0263018B11 Y32L (VHH, name in Kabat numbering, FLAG3-His6 tagged) VHH: EVQLVESGGGVVQPGGSLRLSCAASGFTFSSLAMYWVRQAPGKGLEWVSAISSGGGSTDYADSVKGRFTISRDNSKNTLYLQMNSLRPEDTALYYCAADTLYTSLTWYSYWGQGTLVTVSS: 49
- T0263018B11 S52Q (VHH, name in Kabat numbering, FLAG3-His6 tagged) VHH: EVQLVESGGGVVQPGGSLRLSCAASGFTFSSYAMYWVRQAPGKGLEWVSAIQSGGGSTDYADSVKGRFTISRDNSKNTLYLQMNSLRPEDTALYYCAADTLYTSLTWYSYWGQGTLVTVSS: 22
- T0263018B11 Y32Q (VHH, name in Kabat numbering, FLAG3-His6 tagged) VHH: EVQLVESGGGVVQPGGSLRLSCAASGFTFSSQAMYWVRQAPGKGLEWVSAISSGGGSTDYADSVKGRFTISRDNSKNTLYLQMNSLRPEDTALYYCAADTLYTSLTWYSYWGQGTLVTVSS: 60
- T0263018B11 W100cY (VHH, name in Kabat numbering, FLAG3-His6 tagged) VHH: EVQLVESGGGVVQPGGSLRLSCAASGFTFSSYAMYWVRQAPGKGLEWVSAISSGGGSTDYADSVKGRFTISRDNSKNTLYLQMNSLRPEDTALYYCAADTLYTSLTYYSYWGQGTLVTVSS: 43
- T0263018B11 F27Y (VHH, name in Kabat numbering, FLAG3-His6 tagged) VHH: EVQLVESGGGVVQPGGSLRLSCAASGYTFSSYAMYWVRQAPGKGLEWVSAISSGGGSTDYADSVKGRFTISRDNSKNTLYLQMNSLRPEDTALYYCAADTLYTSLTWYSYWGQGTLVTVSS: 45
- T0263018B11 T28V (VHH, name in Kabat numbering, FLAG3-His6 tagged) VHH: EVQLVESGGGVVQPGGSLRLSCAASGFVFSSYAMYWVRQAPGKGLEWVSAISSGGGSTDYADSVKGRFTISRDNSKNTLYLQMNSLRPEDTALYYCAADTLYTSLTWYSYWGQGTLVTVSS: 38
- T0263018B11 G26M (VHH, name in Kabat numbering, FLAG3-His6 tagged) VHH: EVQLVESGGGVVQPGGSLRLSCAASMFTFSSYAMYWVRQAPGKGLEWVSAISSGGGSTDYADSVKGRFTISRDNSKNTLYLQMNSLRPEDTALYYCAADTLYTSLTWYSYWGQGTLVTVSS: 52

Next item in the queue.
Query: Field request: kd ratio pH 7.4/6.0 | item: T0263018B11 T28N (VHH, name in Kabat numbering, FLAG3-His6 tagged) VHH: EVQLVESGGGVVQPGGSLRLSCAASGFNFSSYAMYWVRQAPGKGLEWVSAISSGGGSTDYADSVKGRFTISRDNSKNTLYLQMNSLRPEDTALYYCAADTLYTSLTWYSYWGQGTLVTVSS
Result: 51
